Tested on: KRAS PDC multicell spheroid viability;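 further: drug exposure lasted seven days; 100% = DMSO vehicle wells and lower means fewer viable cells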
Assay: Anticancer human tumor 521955-158-R6-J3-PDC patient-derived pancreatic carcinoma cell line growth inhibition [KRAS2]
Settings: second compound 1 µM; first compound 1 µM; hits give low values
property.measured: viability, T/C (%)
The answer is to be given in %; state only the numeric part.

Use these answered entries as a reference point.
compound	measurement
COC(=O)c1ccc2c(C(=Nc3ccc(N(C)C(=O)CN4CCN(C)CC4)cc3)c3ccccc3)c(O)[nH]c2c1 + C=CC(=O)N1CCN(c2nc(OCC3CCCN3C)nc3c2CCN(c2cccc4cccc(C)c24)C3)CC1CC#N	95.4
COc1cc2nccc(Oc3ccc(NC(=O)C4(C(=O)Nc5ccc(F)cc5)CC4)cc3)c2cc1OC + C=CC(=O)N1CCN(c2nc(OCC3CCCN3C)nc3c2CCN(c2cccc4cccc(C)c24)C3)CC1CC#N	82.3

--- query ---
Qu. What viability, T/C value was documented for this compound, CC(C)NCC(C(=O)N1CCN(c2ncnc3c2C(C)CC3O)CC1)c1ccc(Cl)cc1 (stereo not drawn) + CC1OCC2(CCN(c3cnc(Sc4ccnc(N)c4Cl)c(N)n3)CC2)C1N ?
Ans. 54.7
